Test system: CCRF-CEM leukemia
Test: NCI-60 one-dose screen, 48 h (100 = growth as untreated, 0 = no growth, -100 = all killed)
Settings: 10 µM unless noted
The panel holds about 83,000 compounds, 20% with a hit somewhere; the sample as a whole holds those more often.
Measured growth values are reported for all entries that follow.
test readout: growth (%)

molecule | numeric readout
c1ccc(-c2cc(-c3cc(-c4ccccc4)on3)no2)cc1 | 81.9
O=C1N=c2ccccc2=C1c1sc(=S)n(C2CC(=O)N(c3ccc(Cl)cc3)C2=O)c1O (stereo not given) | 83.8
O=C1OCC2=C1C(c1cccc(C(F)(F)F)c1)c1cc3c(cc1N2CCO)OCCO3 (stereo not given) | 9.36
O=C1CCc2c(sc3[nH]c(=S)n(Cc4ccc(Cl)cc4)c(=O)c23)C1 | -9.46
O=C(Cn1cc(CN2CCN(c3ccnc4cc(Cl)ccc34)CC2)nn1)Nc1cccc([N+](=O)[O-])c1 | 33.8
